# experimental details: soluble on expression in E. coli; label from the status in PepcDB or PDB records
quantity name: soluble on expression in E. coli

Please review the entries below; each comes with its answer.
[
  {
    "monomer sequence": "MTGATGFIGKYIIDNLLARGFHVRALTRTARAHVNDNLTWVRGSLEDTHSLSELVAGASVVVHCAGQVRGHKEEIFTRCNVDGSLRLMQAAKESGFCQRFLFISSLAARHPELSWYAKSKYVAEQRLAAMADEITLGVFRPTAVYGPGDKELKPLFDWMLRGLLPRLGAPDTQLSFLHVTDFAQAVGQWLSAETVQTQTYELCDGVAGGYDWQRVRQLAAKARCGSVRMVDIPLPVLTGLADISTALSRLAGKEPMLTRSKIRELTHADWSASNNRISEDINWFPGISLEHALRNGLF",
    "soluble on expression in E. coli": "not soluble"
  },
  {
    "monomer sequence": "LHLELEEKLAGIAAWEPTAPRLLNPGVSSGKALVASGVAAAHAREVLEDLGLRDVIPLWQVVQPYPLHTAFVERLLADYDEILVLEETTGVMELQLADRHRVKGKRSGFVPEVGELSPELVERLVAAFAGIPAAPSVAPPTGGGRRPTLCPGCPHRASFHAIKRAAPKGIYPSDIGCYTLGLNLGGVDTVLCMGAAVSQAAGFYHAYKLSGQVPDIVATIGDSTFFHAGIPPLIDAVVQDARFVLVILDNATTAMTGNQPTPALGWGAGGVPTATVDMEGLVKACGV",
    "soluble on expression in E. coli": "not soluble"
  },
  {
    "monomer sequence": "MSLNRKLLTADERQARDTERRSQLDVALMEGVQAILDSDSFKAVLAANAKFHSYSVNNAMLIWLQNPAAERVAGFHTWRKLGRSVKKGAKGIMIYAPRVATNVDAATGSEETHVYFGIEHVFDISQTEGDDIPTLDCPVLTEERGHDVYDRLVTYATRDGLTVSSDVAHELSEAMGYYSAVSKRIWVRPTAKAQMLKTLIHEIAHHLTEGKHTREAHETIAEGVAFQVCACLGIDSGERSFPYIAGWSASEGGTALIKQVLGHIQAITKQVMAIVEPADEANEGAEGHHHHHH",
    "soluble on expression in E. coli": "soluble"
  },
  {
    "monomer sequence": "MEKVHAALTNPAYWDFIVKNLSPEPGEVHEFTEANGGAVATLFEVLPQELLPEAIRAMISQALKVKRVVTVGGLNGTSAPLSYTADVKGTPVDFKGEISMNGLGNTTTLSYANEITVNIPLMGAAIEPKVGQALADLFQNEGDLTSKWISKNL",
    "soluble on expression in E. coli": "not soluble"
  },
  {
    "monomer sequence": "SNAMSDTLYIKMDQAVEITKKQVTVGDVAKLQCKNKNITNRLKSMKLLEDTTKGKKRYIVSIMKIIEMADQTFQNVDIQNIGETECVVEFKTPKKDDGPM",
    "soluble on expression in E. coli": "soluble"
  }
]

Continue with the next sequence.
For the sequence GANETTKQESPVVDTDINAVTNYIVGMCQKFLQKGEKVTPSSKLEELRTREDRLWDCLDTVEFVLDVEEIFDVTVPDEVADNFQTLQEIADFVVSERAKAGKFMKDQ , give its measured soluble on expression in E. coli value.
soluble
